# testedOn: T1, recombinant human PD-L1 (amino acids 19-239 of NP_054862.1) expressed with a C-terminal mouse IgG2a Fc tag (human)
# T1 construct: called dimeric; also called hPD-L1-mFc
# runDescription: competition ELISA: 0.5 nM hPD-L1-mFc binding to coated hPD-1-hFc
# Experimental: The ability of monoclonal anti-PD-L1 antibodies to block human PD-L1 from binding to its binding partners, the human PD-1 and the human B7-1 receptors, was measured using two competition sandwich ELISA formats. […]
pIC50: −log10 of the molar value.
valueType: pIC50

binder	result
H1H9329P (antibody, V domains shown, human IgG1 Fc (H1H prefix)) VH: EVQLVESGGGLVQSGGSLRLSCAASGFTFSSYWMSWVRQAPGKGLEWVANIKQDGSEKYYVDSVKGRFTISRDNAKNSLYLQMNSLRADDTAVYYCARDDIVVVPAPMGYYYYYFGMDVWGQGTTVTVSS VL: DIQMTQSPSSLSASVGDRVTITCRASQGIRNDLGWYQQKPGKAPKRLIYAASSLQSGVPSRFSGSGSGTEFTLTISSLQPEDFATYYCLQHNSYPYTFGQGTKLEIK	> 9.60

The values you see were collected from patent US20210380702A1.
